These measurements were taken from patent US6512097.

systemName: T1, c-erbB-2 ECD with a Ser-Gly-His6 C-terminal fusion (UniProt P04626 23-652)
T1 construct: extracellular domain; Expressed from CHO cells, IMAC purified; coupled to a CM5 chip, coated on plates, or biotinylated with NHS-LC-biotin; also called c-erbB-2 extracellular domain; biotinylated c-erbB-2 ECD
measurementNotes: SPR BIAcore
# maps each entry to its koff
Write your answer as a measured quantity: the number, then the unit.

The following binders have reported results that may help.
binder	koff
C6MH3-D6 (scFv, C6ML3-9 sFv, VH CDR3 library D mutant) scFv: QVQLLQSGAELKKPGESLKISCKGSGYSFTSYWIAWVRQMPGKGLEYMGLIYPGDSDTKYSPSFQGQVTISVDKSVSTAYLQWSSLKPSDSAVYFCARHDVGYCSSSNCAKWPEWMYPWGQGTLVTVSSGGGGSGGGGSGGGGSQSVLTQPPSVSAAPGQKVTISCSGSSSNIGNNYVSWYQQLPGTAPKLLIYGHTNRPAGVPDRFSGSKSGTSASLAISGFRSEDEADYYCASWDYTLSGWVFGGGTKLTVLG	0.00018 s⁻¹
C6MH3-B11 (scFv, C6ML3-9 sFv, VH CDR3 library B mutant) scFv: QVQLLQSGAELKKPGESLKISCKGSGYSFTSYWIAWVRQMPGKGLEYMGLIYPGDSDTKYSPSFQGQVTISVDKSVSTAYLQWSSLKPSDSAVYFCARHDVGYCSDRSCAKWPEYFQHWGQGTLVTVSSGGGGSGGGGSGGGGSQSVLTQPPSVSAAPGQKVTISCSGSSSNIGNNYVSWYQQLPGTAPKLLIYGHTNRPAGVPDRFSGSKSGTSASLAISGFRSEDEADYYCASWDYTLSGWVFGGGTKLTVLG	0.00023 s⁻¹

// below: koff requested for another binder
What value of koff has been recorded for this entry: C6MH3-B9 (scFv, C6ML3-9 sFv, VH CDR3 library B mutant) scFv: QVQLLQSGAELKKPGESLKISCKGSGYSFTSYWIAWVRQMPGKGLEYMGLIYPGDSDTKYSPSFQGQVTISVDKSVSTAYLQWSSLKPSDSAVYFCARHDVGYCKTAACAKWPEYFQHWGQGTLVTVSSGGGGSGGGGSGGGGSQSVLTQPPSVSAAPGQKVTISCSGSSSNIGNNYVSWYQQLPGTAPKLLIYGHTNRPAGVPDRFSGSKSGTSASLAISGFRSEDEADYYCASWDYTLSGWVFGGGTKLTVLG
0.00033 s⁻¹
